A compilation of published pKi results with Glycogen phosphorylase, muscle form (Oryctolagus cuniculus).
- target-of-assay: Glycogen phosphorylase, muscle form (Oryctolagus cuniculus)
- Sequence (P00489 whole entry): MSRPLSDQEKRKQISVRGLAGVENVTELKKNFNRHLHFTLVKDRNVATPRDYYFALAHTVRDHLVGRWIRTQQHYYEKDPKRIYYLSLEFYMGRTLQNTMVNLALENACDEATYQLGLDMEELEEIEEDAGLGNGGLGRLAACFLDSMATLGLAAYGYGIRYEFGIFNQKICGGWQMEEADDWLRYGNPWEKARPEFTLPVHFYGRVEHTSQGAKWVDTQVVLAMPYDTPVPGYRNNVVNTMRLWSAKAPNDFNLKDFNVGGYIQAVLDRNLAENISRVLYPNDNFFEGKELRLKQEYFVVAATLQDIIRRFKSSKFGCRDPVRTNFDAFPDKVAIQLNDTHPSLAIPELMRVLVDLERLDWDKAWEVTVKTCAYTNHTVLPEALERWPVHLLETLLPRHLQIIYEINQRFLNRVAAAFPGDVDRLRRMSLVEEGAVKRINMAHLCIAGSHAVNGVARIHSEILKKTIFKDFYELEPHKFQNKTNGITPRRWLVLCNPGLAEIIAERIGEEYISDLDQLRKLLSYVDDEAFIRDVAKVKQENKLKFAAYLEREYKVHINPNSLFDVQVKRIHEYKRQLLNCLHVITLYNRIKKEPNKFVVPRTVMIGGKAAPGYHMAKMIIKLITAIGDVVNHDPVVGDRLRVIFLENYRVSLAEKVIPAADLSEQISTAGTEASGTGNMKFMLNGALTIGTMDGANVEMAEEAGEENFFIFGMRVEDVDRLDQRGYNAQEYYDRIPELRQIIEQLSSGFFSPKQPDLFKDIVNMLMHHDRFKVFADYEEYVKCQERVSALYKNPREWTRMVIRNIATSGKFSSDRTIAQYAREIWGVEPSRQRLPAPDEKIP
FYI, pKi means -log10 of a concentration in mol per litre.

State pKi (Glycogen phosphorylase, muscle form (Oryctolagus cuniculus)) of OC[C@H]1O[C@@H](c2nc3cc4ccccc4cc3[nH]2)[C@H](O)[C@@H](O)[C@@H]1O .
5.68

Provide pKi, system Glycogen phosphorylase, muscle form (Oryctolagus cuniculus), entry COc1cc(C(=O)N[C@@H]2O[C@H](CO)[C@@H](O)[C@H](O)[C@H]2O)cc2c1OCCO2
3.63

Please respond with reported pKi (system Glycogen phosphorylase, muscle form (Oryctolagus cuniculus)) for O=C1N/C(=N/S(=O)(=O)c2ccccc2)S[C@@]12O[C@H](CO)[C@@H](O)[C@H](O)[C@H]2O .
3.84

// output pKi; input OC[C@H]1O[C@]2(ON=C(c3ccc(F)cc3)S2)[C@H](O)[C@@H](O)[C@@H]1O ; system Glycogen phosphorylase, muscle form (Oryctolagus cuniculus)
4.32

Jot down pKi (Glycogen phosphorylase, muscle form (Oryctolagus cuniculus)) of OC[C@H]1O[C@@H](c2nc(-c3cccc4ccccc34)no2)[C@H](O)[C@@H](O)[C@@H]1O .
4.72

---

- target-of-assay: Glycogen phosphorylase, muscle form (Oryctolagus cuniculus, UniProt P00489)
- Sequence (P00489 whole entry): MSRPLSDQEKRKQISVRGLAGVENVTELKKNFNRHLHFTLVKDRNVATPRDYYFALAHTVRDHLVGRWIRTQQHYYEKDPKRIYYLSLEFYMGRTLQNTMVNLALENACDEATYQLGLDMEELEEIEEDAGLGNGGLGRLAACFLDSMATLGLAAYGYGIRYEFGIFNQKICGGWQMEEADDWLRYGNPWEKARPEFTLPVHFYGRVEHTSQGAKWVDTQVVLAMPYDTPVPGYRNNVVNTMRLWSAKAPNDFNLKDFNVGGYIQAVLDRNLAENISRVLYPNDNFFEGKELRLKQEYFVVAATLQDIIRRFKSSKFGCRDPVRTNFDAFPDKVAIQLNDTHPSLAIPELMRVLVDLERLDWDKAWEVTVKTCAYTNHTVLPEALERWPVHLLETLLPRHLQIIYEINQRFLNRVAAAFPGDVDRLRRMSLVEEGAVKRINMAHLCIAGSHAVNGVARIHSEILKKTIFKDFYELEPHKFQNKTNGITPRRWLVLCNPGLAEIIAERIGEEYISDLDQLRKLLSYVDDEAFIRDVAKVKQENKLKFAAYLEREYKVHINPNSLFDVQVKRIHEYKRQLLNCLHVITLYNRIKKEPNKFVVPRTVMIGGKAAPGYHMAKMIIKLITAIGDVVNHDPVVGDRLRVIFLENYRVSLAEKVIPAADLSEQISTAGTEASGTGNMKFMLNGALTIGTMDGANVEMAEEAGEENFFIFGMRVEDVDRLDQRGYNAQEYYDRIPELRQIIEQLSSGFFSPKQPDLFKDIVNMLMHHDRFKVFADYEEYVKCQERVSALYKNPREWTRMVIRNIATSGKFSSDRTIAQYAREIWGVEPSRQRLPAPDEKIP
Field: log10 Ki. System: Glycogen phosphorylase, muscle form (Oryctolagus cuniculus, UniProt P00489). Provenance: assorted publications.
Hey, these are logged values: log10 of Ki, µM being the unit before logging.

Below: 10 compounds and their reported log10 Ki.
COc1ccc(C2=NO[C@]3(O[C@H](CO)[C@@H](O)[C@H](O)[C@H]3O)S2)cc1 = 0.90
Cc1ccc(C(=O)/N=C2/NC(=O)[C@]3(O[C@H](CO)[C@@H](O)[C@H](O)[C@H]3O)S2)cc1 = 1.54
OC[C@H]1O[C@@H](c2nc(-c3ccc(C(F)(F)F)cc3)n[nH]2)[C@H](O)[C@@H](O)[C@@H]1O = 2.05
O=C(N[C@@H]1O[C@H](CO)[C@@H](O)[C@H](O)[C@H]1O)c1cn(-c2ccccc2)nn1 = 1.88
OC[C@H]1O[C@@H](c2nc(-c3ccccc3)no2)[C@H](O)[C@@H](O)[C@@H]1O = 1.43
O=C1NCC(O)NC12O[C@H](CO)[C@@H](O)[C@H](O)[C@H]2O (stereo partly drawn) = 1.78
O=C(N[C@@H]1O[C@H](CO)[C@@H](O)[C@H](O)[C@H]1O)c1cc(Br)c2c(c1)OCCO2 = 2.43
O=C(N[C@@H]1O[C@H](CO)[C@@H](O)[C@H](O)[C@H]1O)c1ccc2c(c1)OCCO2 = 2.40
CCCc1cc2cn([C@@H]3O[C@H](CO)[C@@H](O)[C@H](O)[C@H]3O)c(=O)nc2o1 = 1.51
NN1C(=O)N[C@@]2(O[C@H](CO)[C@@H](O)[C@H](O)[C@H]2O)C1=O = 2.16

Find log10 Ki for Cc1cc(C)cc(-c2n[nH]c([C@@H]3O[C@H](CO)[C@@H](O)[C@H](O)[C@H]3O)n2)c1 on Glycogen phosphorylase, muscle form (Oryctolagus cuniculus, UniProt P00489) and write it down.
1.60

Provide the reported log10 Ki (system: Glycogen phosphorylase, muscle form (Oryctolagus cuniculus, UniProt P00489)) for OC[C@H]1O[C@@H](c2cc(O)ccc2O)[C@H](O)[C@@H](O)[C@@H]1O
2.95

GET log10 Ki | system: Glycogen phosphorylase, muscle form (Oryctolagus cuniculus, UniProt P00489) | item: O=C1C=CC(=O)C([C@@H]2O[C@H](CO)[C@@H](O)[C@H](O)[C@H]2O)=C1
3.11
